Experiment: Pharmacokinetics in CD-1 mice after intravenous or oral Compound 003
Format: in vivo
Details: female, CD-1, mouse, po; plasma metabolite following p.o. 200 mg/kg Compound 003
Quick reference for Cmax among some molecules
Form entry: value (µM) — number only.

> print(dat)
                                   molecule  measured.attribute  scale.unit  endpoint.value
1  Cc1cn([C@H]2C[C@H](N=[N+]=[N-])[C@@H](CO)O2)c(=O)[nH]c1=O [AZT, 3′-azido-3′-deoxythymidine, reference compound]                Cmax          µM            46.9

Now look at this entry.
Q: So what does the record say about Cmax for Cc1cn(C2CC(N=[N+]=[N-])C(COP(=O)(O)NC(C)C(=O)O)O2)c(=O)[nH]c1=O (centres unmarked) ?
Result: 9.8
